IC50 for assorted molecules
- targetEntity: CDK1/Cyclin B
- assayOverview: CDK1/Cyclin B kinase inhibition assay
- Type: biochemical, starfish (Marthasterias glacialis)
- testParameters: mean of triplicates, variation max 20%; ATP 15 µM, histone H1, 30 °C

See these solved cases before continuing.
# molecule, IC50
rows = [
    ("COc1cc2c3c(c1OC)-c1ccccc1CC3NCC2 (single isomer, unassigned; (+)) [Compound 15, (+)-N-nornuciferine]", "> 30 µM"),
    ("COc1cc2c3c(cc4c(O)cccc4c3c1OC)NC2=O [Compound 3, velutinam]", "1.5 µM"),
    ("COc1cc2c3c(c1O)-c1c(ccc(OC)c1OC)CC3N(C)CC2 (single isomer, unassigned; (+)) [Compound 6, (+)-corydine]", "> 30 µM"),
    ("COc1cc2ccnc3c2c(c1OC)-c1ccccc1C3=O [Compound 13, lysicamine]", "> 30 µM"),
    ("O=C1c2ccccc2-c2c3c(cc4ccnc1c24)OCO3 [Compound 8, liriodenine]", "> 30 µM"),
    ("COc1cc2c(cc1O)CC1NCCc3cc4c(c-2c31)OCO4 (single isomer, unassigned; (+)) [Compound 11, (+)-actinodaphnine]", "> 30 µM"),
    ("COc1c2c3c(c(OC)c1OC)-c1ccccc1CC3NCC2 (single isomer, unassigned; (-)) [Compound 14, (−)-O-methylisopiline]", "> 30 µM"),
    ("COc1ccc2c(c1O)-c1c3c(cc4c1C(C2)N(C)CC4)OCO3 (single isomer, unassigned; (+)) [Compound 9, (+)-bulbocapnine]", "> 30 µM"),
    ("COc1c(O)cc2c3c(cc4ccccc4c13)NC2=O [Compound 1, aristolactam AII]", "> 30 µM"),
    ("CN1CCc2cc3c(c4c2C1Cc1ccccc1-4)OCO3 (single isomer, unassigned; (-)) [Compound 7, (−)-roemerine]", "> 30 µM"),
]

query: Using the record for COc1c(O)cc2c3c(cc4ccc(O)cc4c13)NC2=O [Compound 4, aristolactam AIIIA] , state its measured IC50.
result: 0.2 µM

query: Using the record for COc1cc([C@H]2OC[C@@H]3C(c4cc(OC)c(O)c(OC)c4)OC[C@H]23)ccc1O (single isomer, unassigned; (-)) [Compound 5, (−)-medioresinol] , state its measured IC50.
result: 1.3 µM

query: Using the record for COc1cc2c(cc1O)CC1c3c(cc(O)c(OC)c3-2)CCN1C (single isomer, unassigned; (+)) [Compound 16, (+)-boldine] , state its measured IC50.
result: > 30 µM

query: Using the record for COc1ccc2c(c1O)-c1c(OC)c(O)cc3c1C(C2)N(C)CC3 (single isomer, unassigned; (+)) [Compound 10, (+)-N-methyllindcarpine] , state its measured IC50.
result: > 30 µM
